System: SF-539 CNS
procedure-text: NCI tumour cell line growth inhibition, 48 h
endpoint-label: TGI

// query Form entry - test system: SF-539 CNS; read-out: TGI; molecule: O=C1NCCCc2nonc21
// result > 100 µM

// query Form entry - test system: SF-539 CNS; read-out: TGI; molecule: C=C1C(=O)O[C@H]2[C@H]1CC/C(COC(=O)NCc1ccccc1OC)=C\CC[C@@]1(C)O[C@@H]21
// result 3.04 µM

// query Form entry - test system: SF-539 CNS; read-out: TGI; molecule: CNS(=O)(=O)NN(C)S(=O)(=O)c1ccc(F)cc1
// result > 100 µM

// query Form entry - test system: SF-539 CNS; read-out: TGI; molecule: CC(=O)N/N=C1/NN(C(C)=O)C2(S1)C(=O)Nc1ccc(Br)cc12 (stereo not drawn)
// result > 100 µM

// query Form entry - test system: SF-539 CNS; read-out: TGI; molecule: CC1(C)O[C@@H]2COC(=O)[C@@H]2O1
// result > 100 µM

// query Form entry - test system: SF-539 CNS; read-out: TGI; molecule: COc1cc2c(cc1OC)C(N(C)C)C(c1ccccc1)=C2Cl (stereo not drawn)
// result 37.7 µM

// query Form entry - test system: SF-539 CNS; read-out: TGI; molecule: O=C([O-])c1ccccc1Nc1ccccn1.O=C([O-])c1ccccc1Nc1ccccn1.[Ni+2]
// result > 100 µM

// query Form entry - test system: SF-539 CNS; read-out: TGI; molecule: CSCCC(NCc1c(O)ccc2c(-c3ccccc3)cc(=O)oc12)C(=O)O (stereo not drawn)
// result > 100 µM

###

Tested on: HOP-92 NSCLC
procedure-text: NCI tumour cell line growth inhibition, 48 h
endpoint-label: TGI

// query Form entry - test system: HOP-92 NSCLC; read-out: TGI; compound: CCN(Cc1ccc(F)c(F)c1)c1ccc(CO)c(Cl)c1
// result 12.2 µM

// query Form entry - test system: HOP-92 NSCLC; read-out: TGI; compound: O=c1cc(/C=C/c2ccc(O)c(O)c2)oc(/C=C/c2ccc(O)c(O)c2)c1
// result 8.78 µM

// query Form entry - test system: HOP-92 NSCLC; read-out: TGI; compound: CC(=O)NC(CCCNCc1ccccc1)C(=O)NCc1ccccc1 (configuration not stated)
// result > 100 µM

// query Form entry - test system: HOP-92 NSCLC; read-out: TGI; compound: CC(=O)NNc1nc(C)c(C(=O)NNC(=O)C(=O)Nc2ccccc2C#N)s1
// result > 100 µM

// query Form entry - test system: HOP-92 NSCLC; read-out: TGI; compound: Cc1ccc(S(=O)(=O)N2CCSCCSCCSCCSCC2)cc1
// result 23.4 µM

// query Form entry - test system: HOP-92 NSCLC; read-out: TGI; compound: C[n+]1c(-c2ccccc2)cc2/c(=C\c3ccc([N+](=O)[O-])cc3)c3ccccc3n21
// result > 41.6 µM

// query Form entry - test system: HOP-92 NSCLC; read-out: TGI; compound: O=C(O)[C@@H]1C[C@@H](O)CN1C(=O)OCc1ccccc1
// result > 100 µM

// query Form entry - test system: HOP-92 NSCLC; read-out: TGI; compound: O=C(Nc1cccc2cnccc12)c1cc2c(cc1Cl)Sc1nccn1S2(=O)=O
// result 59.4 µM

// query Form entry - test system: HOP-92 NSCLC; read-out: TGI; compound: C=C(C)CCC(=O)[C@](C)(O)[C@H]1[C@H](O)C[C@@]2(C)[C@@H]3CCc4c(cc(OC5OC(CO)C(O)C(O)C5O)c(O)c4C)C3(C)C(=O)C[C@]12C (some centres not stated)
// result > 100 µM

// query Form entry - test system: HOP-92 NSCLC; read-out: TGI; compound: O=C(O)C1CC(c2ccc(F)cc2)=Nc2ccc(F)cc2S1 (configuration not stated)
// result > 100 µM

// query Form entry - test system: HOP-92 NSCLC; read-out: TGI; compound: COC(=O)c1ccccc1/C=C1/Cc2ccccc2C1=O
// result > 100 µM

// query Form entry - test system: HOP-92 NSCLC; read-out: TGI; compound: COCOc1ccc(OC)cc1
// result > 100 µM

// query Form entry - test system: HOP-92 NSCLC; read-out: TGI; compound: CC(=O)NS(=O)(=O)c1ccc(NC(=O)c2c3ccccc3nc3ccccc23)cc1
// result > 100 µM

// query Form entry - test system: HOP-92 NSCLC; read-out: TGI; compound: CCOC1CC(=O)c2c(Br)sc(Br)c21 (configuration not stated)
// result 35.3 µM

// query Form entry - test system: HOP-92 NSCLC; read-out: TGI; compound: O=C(CC(=O)CC(O)(C(F)(F)F)C(F)(F)F)CC(O)(C(F)(F)F)C(F)(F)F
// result > 10 µM

// query Form entry - test system: HOP-92 NSCLC; read-out: TGI; compound: Cc1[c-]onc1C.Cc1[c-]onc1C.[Ag].[Ag].[NH-]S(=O)(=O)c1ccc(N=Nc2cc(N=Nc3ccc(S([NH-])(=O)=O)cc3)c3c(NC(=O)C(Cl)Cl)cccc3c2OC(=O)C(Cl)Cl)cc1
// result 18.4 µM

// query Form entry - test system: HOP-92 NSCLC; read-out: TGI; compound: CNC(=O)OCc1nc(SC2CCCCO2)n(C)c1COC(=O)NC (configuration not stated)
// result > 100 µM

// query Form entry - test system: HOP-92 NSCLC; read-out: TGI; compound: CCSC1=CC(=O)c2nc3ccccc3c3ccnc1c23
// result 38.6 µM

// query Form entry - test system: HOP-92 NSCLC; read-out: TGI; compound: O=C(CN1CCCCC1)CC(O)(C(F)(F)F)C(F)(F)F
// result > 100 µM

// query Form entry - test system: HOP-92 NSCLC; read-out: TGI; compound: COc1cc(/C=C/C(=O)O)ccc1C(=O)O/C=C/c1ccccc1
// result > 100 µM

// query Form entry - test system: HOP-92 NSCLC; read-out: TGI; compound: CCCCCn1c(=N)n(CC(O)COc2cccc(C)c2)c2ccccc21 (configuration not stated)
// result 14.8 µM

// query Form entry - test system: HOP-92 NSCLC; read-out: TGI; compound: COC1(C(=O)N[C@@H](C)c2ccc(-n3cc(F)cn3)nc2)CCC(c2nc(C)cc(Nc3cc(C)[nH]n3)n2)CC1 (some centres not stated)
// result 2.58 µM

// query Form entry - test system: HOP-92 NSCLC; read-out: TGI; compound: Nc1c2ccccc2nc2c1ccc1ncccc12
// result > 100 µM

// query Form entry - test system: HOP-92 NSCLC; read-out: TGI; compound: O=c1c2ncn(C3CC(O)C(CO)O3)c2nnn1Cc1ccccc1[N+](=O)[O-] (configuration not stated)
// result > 100 µM

// query Form entry - test system: HOP-92 NSCLC; read-out: TGI; compound: CCN(CC)CCNc1ccc2nnn3c4ccc(OC)cc4c(=O)c1c23
// result 19.5 µM

// query Form entry - test system: HOP-92 NSCLC; read-out: TGI; compound: CCN1C(=O)N(CC)C2C1NN=c1s/c(=C\c3cccnc3)c(=O)n12 (configuration not stated)
// result > 100 µM

// query Form entry - test system: HOP-92 NSCLC; read-out: TGI; compound: CSC1CC2C(CC1(C)O)C2(C)C (configuration not stated)
// result > 100 µM

// query Form entry - test system: HOP-92 NSCLC; read-out: TGI; compound: Nc1ccn(Cc2ccc(C34CC5CC(CC(C5)C3)C4)c(O)c2)c(=O)n1
// result 71.4 µM

// query Form entry - test system: HOP-92 NSCLC; read-out: TGI; compound: CCN(CC)CCOC(NC(C)=O)(c1ccccc1)c1ccccc1
// result > 100 µM

// query Form entry - test system: HOP-92 NSCLC; read-out: TGI; compound: O=CNc1c(Cl)cc2c(c1Cl)Cc1cc([N+](=O)[O-])ccc1-2
// result > 100 µM

// query Form entry - test system: HOP-92 NSCLC; read-out: TGI; compound: O=C1NCCCc2nonc21
// result > 100 µM

// query Form entry - test system: HOP-92 NSCLC; read-out: TGI; compound: CCCC[C@H](NC(=O)[C@H]1CCCN1C)C(=O)N(C)[C@H](C[C@@H](OC(C)=O)c1nc(C(=O)N[C@@H](Cc2ccccc2)C[C@H](C)C(=O)OCC)cs1)C(C)C
// result 32.7 µM

// query Form entry - test system: HOP-92 NSCLC; read-out: TGI; compound: COc1cc2c(cc1OC)C1c3ccccc3CCN1CC2 (configuration not stated)
// result > 100 µM

// query Form entry - test system: HOP-92 NSCLC; read-out: TGI; compound: CC1(C)SC2C(NC(=O)C(N)c3ccccc3)C(=O)N2C1C(=O)O (configuration not stated)
// result > 100 µM

// query Form entry - test system: HOP-92 NSCLC; read-out: TGI; compound: COc1cccc(/C=C/C(=O)c2cccc(Nc3nc(Nc4ccccc4)nc(Nc4ccccc4)n3)c2)c1
// result 50.5 µM

// query Form entry - test system: HOP-92 NSCLC; read-out: TGI; compound: O=C(c1ccc(F)cc1)c1cccc(C(=O)c2ccc(F)cc2)n1
// result 44.4 µM

// query Form entry - test system: HOP-92 NSCLC; read-out: TGI; compound: CCNC(=O)Nc1ccccn1
// result > 100 µM
